The origin of these recorded values is the supplement of paper PMC9170038.

# Test system: K4 kissing-loop RNA reporter
# Test Description: apparent KD of K4 kissing-loop reporter; higher = weaker reporter binding
# Assay Setup: Eterna round: R107; input ligand: arginine 13.2 mM
Parameter Measured: apparent KD of K4 kissing-loop reporter (µM)
Express it in µM; write the number only.

{"columns": ["Chain", "U", "apparent KD of K4 kissing-loop reporter"],
 "data": [
  ["CACGAUGAAUUCUCUAGGAGUGAUGUUUUUCGAGGACCGGUACGGCCGCCACUCGGACGACGAGCGUGGUAGCGGCCUGAAGACU [,omullin]", "µM", 0.225],
  ["AAAGGAUCAGAGAGUGAUGUUCUCUAAUAACGAGGACCGGUACGGCCGCCACUCGAAUAGAUCCAAGUCCUACGAAAAGUAGGAC [Omei inspired 8]", "µM", 0.217]
]}

Here's the next entry for you.
Item: UUCGAAAGUCGAAGGAGCGCUGUCGGUCAUAGACCAUAUCUGUAGUGAUGUUACAGAUGACAGCAGGUAGGUCGCGACAGAGACA [Arg B SS t18] Test system: K4 kissing-loop RNA reporter Read-out: apparent KD of K4 kissing-loop reporter Value: ? 0.12

----------
# Tested on: K4 kissing-loop RNA reporter
# Test Description: apparent KD of K4 kissing-loop reporter; higher = weaker reporter binding
# Assay Setup: Eterna round: R107; input ligand: theophylline 20 uM
Parameter Measured: apparent KD of K4 kissing-loop reporter (nM)
Report the value in nM with no unit label.

The following sequences have reported results that may help.
{"columns": ["Chain", "apparent KD of K4 kissing-loop reporter (nM)"],
 "data": [
  ["AUUGUACAGGGAAGGAGCGUCGACCAGUGAUGUUGGAGUUAAAUACCAGUGAUGUUGGUUAGGCAGGUAGGUCGCCCUCAAGUAG [#10 K4 Arginine B Exclusion]", 219],
  ["GAUUUAGAGGCGGCCGCCACUAGUGAUGUUAGUGAUGUUUGAUACUGAAUAUAUCUGCGUUUAGAUAGGACCGGGCCAGAUGGUG [ddcmullin]", 215]
]}

Now for a further sequence.
Lab note: need apparent KD of K4 kissing-loop reporter with K4 kissing-loop RNA reporter for entry GCCGUACGCAUGGAUACCAGCAAUAUGCUACGUUGUAGUAGUAUAACCAGUGAUGUUGGAUGCCCUUGGCAGCCAUGCGUACGGC , please look it up. 349

----------
# System: MS2 coat protein
# Test Description: apparent KD of MS2 coat protein; designed switch direction (-1 OFF switch, 1 ON switch): -1; higher = weaker reporter binding
# Assay Setup: input ligand: FMN 200 uM
Parameter Measured: apparent KD of MS2 coat protein (µM)
API: value field is a number in µM; no unit string.

{"columns": ["Chain", "Study Target", "apparent KD of MS2 coat protein, µM"],
 "data": [
  ["AUCAGCUCGUGAGGAUAUACAUGAGGAUCACCCAUGUGAUCAAUAGCAGCUUCGGCUGCAUUAAUGUAGAAGGCACGAGCUGAU [ENG2/5-A3] (Eterna round: R96, puzzle: Exclusion NG 2)", "MS2 coat protein", 0.0779],
  ["UUUUAGCAAGCGAGAUCCCACAUGAGGAUCACCCAUGUGCAUCCAGAAUUACUUUUUGCAUAAGCUCGUCUUAUAUA [JR_STOV1_v2_Sub080] (Eterna round: R97, puzzle: Sensor, turn-off variant 1)", "MS2 coat protein", 0.0588]
]}

Return apparent KD of MS2 coat protein measured with MS2 coat protein given this sequence: UACAUGAGGAUCACCCAUGUUUUGUCGUGUAUGGUAUUUAUCUAGGAUAUCAAUCUAUUUAUGUAUGAGAAGGAGAAUAUUAAU [JMF's solution 55] (Eterna round: R96, puzzle: Exclusion NG 3) 0.0423

State its apparent KD of MS2 coat protein on MS2 coat protein: UAAGGGUGCGUAGGAUAUCGCGGCCGAAUAAAGCGAGAAGGACGCCCGAAUGGGUCGUCCAACAUGAGGAUCACCCAUGUAAAC [Soerre] (Eterna round: R96, puzzle: Exclusion NG 1) 0.14

Identify the measured apparent KD of MS2 coat protein of AUAUUGUGAGGAUAUGAUCUUAGUAUCGAAAGAUACUAAGUUCAGAAGGCACAUGAGGAUCACCCAUGUUUCUC [Long static hairpin v14] (Eterna round: R97, puzzle: Exclusion 4) for MS2 coat protein. 0.982

Find the measured apparent KD of MS2 coat protein: item GGCGAAGUAGGAUAUACAUGAGGAUCACCCAUGUAACCUGAUGGCGUAGGUCUUCUAUGUAGAAGGACUACGCC [jl-ex3-4.39 ViennaUCT mod] (Eterna round: R97, puzzle: Exclusion 3) , target or system MS2 coat protein. 0.0159

Please state recorded apparent KD of MS2 coat protein (tested on MS2 coat protein) of UAUGGUUAAGUCAGGAUAUACUCAUAGAAGUCUGUGUAGAAGGGACAUGAGGAUCACCCAUGUAUGGUAGUGUU [Ex4 #47] (Eterna round: R97, puzzle: Brourd's mod of Exclusion 4) 0.151

----------
# System: K4 kissing-loop RNA reporter
# Test Description: apparent KD of K4 kissing-loop reporter; higher = weaker reporter binding
# Assay Setup: Eterna round: R107; input ligand: tryptophan 2.4 mM
Parameter Measured: apparent KD of K4 kissing-loop reporter (µM)
I only need the number, in µM, no unit after it.

Some entries whose results are on file:
{"columns": ["Chain", "apparent KD of K4 kissing-loop reporter, µM"],
 "data": [
  ["UUUUGGUACUGAGGAUAUUCGACGAAAUAUAGUGAUGUUAUAUAAGGAGGAGGAGGGUGGGAGGAAGGAGAAGGCAGAAGAGGAG [#06 K4 FMN B Exclusion]", 0.185],
  ["AACGCUGGUGAAUAACACUAGCGAAAUUCGCGAGGACCGGUACGGCCGCCACUCGCUAACUGCGAGUGAUGUUCGAUAAUAAAAU [Mat - Mod of OpenEnded 3 - D7]", 0.122],
  ["AAAAGCAGAAAGACGCAUUAAAGAACCGAAGGAGCGCGGAAUUACGCAGGUAGGUCGCGGGAUAAGCGAGUGAUGUUCGCGAAAG [Arginine A Same State; Euphoria Solution]", 0.0536],
  ["AACUGUCAAGGACAACAUUACUGCAGUGAUACCAGCAUCGAAAGAUGCCCUUGGCAGCACUAACUUGCAGUGAUGUUGCAAGUAA [BrourdMod 4 - Jieux - Exclusion - Theophylline A]", 0.264],
  ["CCCUAAAUAUGCAGUGAUGUUGCAACUGAUACCAGUAUCGAAAGAUACCCUUGGCAGCGGAAAACCGCUACGUAAUUUAAAAGGG [Ex Theophylline A K4 19]", 0.243]
]}

Now turn to the next sequence.
Requested read-out: apparent KD of K4 kissing-loop reporter. Entry: GGGAGUAGUGCGGCCGCCACUGAGAAAGAAGAAGAAUAUAGUGAUGUUAUAUAGGAAAGGAAGAAUAGGACCGGGCAUUAGAUUU [SSTRyptB.J] 0.257

----------
Listing of entries alongside the reported apparent KD of K4 kissing-loop reporter.
# Tested on: K4 kissing-loop RNA reporter;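 also: bound reporter read as fluorescence of individual clusters on recovered sequencing chips by microscopy, with normalized cluster intensities fitted with a binding model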
# Test Description: apparent KD of K4 kissing-loop reporter; higher = weaker reporter binding
# Assay Setup: Eterna round: R107; input ligand: tryptophan 2.4 mM
// return numeric value only (unit: nM, not printed)

Known apparent KD of K4 kissing-loop reporter results, listed for orientation:
{"columns": ["Chain", "Parameter Measured", "Measured Value"],
 "data": [
  ["UCGCGUCUGUGAGGAUAUCAGAACAGAGUGAUGUUCUGUCAACGCCCAGUGAUGUUGGAUGCGAUCUGAGAAGGCACUGGGCGCA [Same State FMN B GF 9]", "apparent KD of K4 kissing-loop reporter", 1160],
  ["ACGUCCGGAUUGAUCGUGGGCAUGGUCGAUACCAGUAGUUUAAUCUACCCUUGGCAGCGACAUGAGUGAUGUUCAUGUGCGGUGA [#14 K4 Theophylline A Exclusion]", "apparent KD of K4 kissing-loop reporter", 200]
]}

apparent KD of K4 kissing-loop reporter lookup needed for AACGUUUUGAGAAGGAGCGCGUUAAGCAGUGAUGUUGCUUUAUUUUAUCAAAUACAUAUAUCGCAGGUAGGUCGCUCAAUACGUA [JR_Nu_SSArginiB_Sub026] , thanks. 230

Which apparent KD of K4 kissing-loop reporter is reported for this sequence? AACCGUGUGGCGGCCGCCACUAGUCUCCAGUGAUGUUGGAGAGACCACGUAAGUGGUCUCCAACAUAGGACCGGGCCAUAUGGAA [Same State - Tryptophan B (Freestyle 26)] 259

What value of apparent KD of K4 kissing-loop reporter has been recorded for this entry: AUUUUUUUAUCAGGAUAUUAGUGUUGGUUUGUUUUGUUAGUGAUGUUGAUAUUUGUUUUAUGUAUUUAAGAAGGGAUUGAGAUGU [huupullin] 211

I would be grateful if you could share the reported apparent KD of K4 kissing-loop reporter for GGCACGGUAACGCAACCGCCGUGCGCUUGGGAGGAUAUGUUUCGUGACAGAAGGCCCAGUGAUGUUGGGUCUGUUCAAAAGGACU [Ceenerus] . 88.7
